- experimental system: human TLR8 (Homo sapiens, UniProt Q9NR97)
- Construct: host or cells: HEK-Blue cells
- Sequence (Q9NR97 27-1041): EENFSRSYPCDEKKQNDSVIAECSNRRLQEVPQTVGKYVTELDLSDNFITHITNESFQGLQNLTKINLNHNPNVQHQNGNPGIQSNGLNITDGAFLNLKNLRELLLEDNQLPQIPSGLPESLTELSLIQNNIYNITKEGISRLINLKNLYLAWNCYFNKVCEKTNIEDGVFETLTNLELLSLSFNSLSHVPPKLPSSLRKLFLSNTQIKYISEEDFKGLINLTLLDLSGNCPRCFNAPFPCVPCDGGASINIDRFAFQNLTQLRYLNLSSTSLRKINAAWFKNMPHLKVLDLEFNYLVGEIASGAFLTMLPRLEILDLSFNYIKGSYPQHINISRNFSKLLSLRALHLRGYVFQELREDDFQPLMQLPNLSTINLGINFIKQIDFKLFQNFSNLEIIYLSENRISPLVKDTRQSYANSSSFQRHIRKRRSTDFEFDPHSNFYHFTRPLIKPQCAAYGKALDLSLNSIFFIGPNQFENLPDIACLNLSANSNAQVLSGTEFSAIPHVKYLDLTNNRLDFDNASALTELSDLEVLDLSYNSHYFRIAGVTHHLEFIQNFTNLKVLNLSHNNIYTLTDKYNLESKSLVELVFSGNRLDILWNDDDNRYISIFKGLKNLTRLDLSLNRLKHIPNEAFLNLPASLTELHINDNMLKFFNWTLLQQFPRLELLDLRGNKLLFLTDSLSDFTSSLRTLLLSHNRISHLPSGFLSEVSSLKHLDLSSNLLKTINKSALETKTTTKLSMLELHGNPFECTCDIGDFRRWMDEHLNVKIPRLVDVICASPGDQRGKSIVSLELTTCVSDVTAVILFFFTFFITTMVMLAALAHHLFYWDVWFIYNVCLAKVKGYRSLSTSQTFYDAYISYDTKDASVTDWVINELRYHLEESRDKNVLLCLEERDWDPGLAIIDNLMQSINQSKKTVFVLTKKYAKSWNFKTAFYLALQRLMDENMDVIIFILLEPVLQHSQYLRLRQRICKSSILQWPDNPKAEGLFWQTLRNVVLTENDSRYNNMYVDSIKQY
- test name: TLR8 inhibition reporter assay (HEK-Blue cells, SEAP reporter, R848 stimulation)
- Format: cell-based
- condition details: HEK-Blue cells overexpressing human TLR8, SEAP reporter, R848 15.9 μM; read-out: TLR8 IC50
assay endpoint: IC50 (nM)

Use the examples below as a reference point.
• Cc1c(-c2[nH]c3sc(N4CCN(CC(=O)N(C)C)C[C@H]4C)nc3c2C(C)C)cn2ncnc2c1C = 17.8
• COc1cc(-c2[nH]c3sc(C4CCC(N5CC6(C5)CS(=O)(=O)C6)CC4)nc3c2C(C)C)cn2ncnc12 (stereo not shown) [Example 97] = 41.9
• Cc1c(-c2[nH]c3sc(N4C[C@@H](C)N(CC(=O)N(C)C)C[C@@H]4C)nc3c2C(C)C)cn2ncnc2c1C = 11.1
• Cc1c(-c2[nH]c3sc(N4CCN(CC5CC5)C[C@@H]4C)nc3c2C(C)C)cn2ncnc2c1C = 1.09

(I) Cc1c(-c2[nH]c3sc(C4CCC(NC5CCS(=O)(=O)C5)CC4)nc3c2C(C)C)cn2ncnc2c1C (racemic) [Example 230]
(II) Cc1c(-c2[nH]c3sc(C(=O)N4CC(N(C)C)C4)nc3c2C(C)C)cn2ncnc2c1C
(III) COc1cc(-c2[nH]c3sc(C4CCC(N5CCC6(CC5)COC6)CC4)nc3c2C(C)C)cn2ncnc12 (single isomer, unassigned) [Example 113]
Request: Given 3 molecules, produce a descending ranking by IC50. List the labels, following the order given in the request.
Response: III, II, I

====

- experimental system: human TLR9 (Homo sapiens, UniProt Q9NR96)
- Sequence (Q9NR96 26-1032): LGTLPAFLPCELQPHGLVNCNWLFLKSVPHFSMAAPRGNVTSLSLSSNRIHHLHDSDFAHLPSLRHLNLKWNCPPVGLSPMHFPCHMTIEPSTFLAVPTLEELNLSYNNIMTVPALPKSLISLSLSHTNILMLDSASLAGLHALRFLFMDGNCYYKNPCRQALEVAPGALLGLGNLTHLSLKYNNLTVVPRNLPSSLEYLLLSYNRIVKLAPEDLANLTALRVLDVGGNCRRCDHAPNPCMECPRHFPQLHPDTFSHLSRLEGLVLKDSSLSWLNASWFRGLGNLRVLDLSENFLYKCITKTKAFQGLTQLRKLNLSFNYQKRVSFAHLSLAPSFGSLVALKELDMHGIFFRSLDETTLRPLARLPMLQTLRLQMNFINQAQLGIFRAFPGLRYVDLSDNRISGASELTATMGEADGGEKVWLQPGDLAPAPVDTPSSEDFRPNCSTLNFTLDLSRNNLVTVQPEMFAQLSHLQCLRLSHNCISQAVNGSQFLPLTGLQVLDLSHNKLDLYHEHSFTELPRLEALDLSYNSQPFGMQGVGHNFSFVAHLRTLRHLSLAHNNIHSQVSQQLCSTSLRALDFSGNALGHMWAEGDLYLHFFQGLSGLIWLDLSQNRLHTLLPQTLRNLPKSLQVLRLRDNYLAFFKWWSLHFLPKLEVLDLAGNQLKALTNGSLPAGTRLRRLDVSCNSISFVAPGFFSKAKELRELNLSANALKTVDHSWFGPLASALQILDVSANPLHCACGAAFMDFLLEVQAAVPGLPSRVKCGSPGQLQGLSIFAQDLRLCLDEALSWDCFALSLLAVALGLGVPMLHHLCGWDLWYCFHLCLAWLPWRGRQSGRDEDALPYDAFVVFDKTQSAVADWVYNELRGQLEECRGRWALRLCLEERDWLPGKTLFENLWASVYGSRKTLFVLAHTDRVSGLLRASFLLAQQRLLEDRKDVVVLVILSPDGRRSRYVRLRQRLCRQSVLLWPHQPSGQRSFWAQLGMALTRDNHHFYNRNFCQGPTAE
- test name: TLR9 inhibition reporter assay (HEK-Blue cells, SEAP reporter, ODN2006 stimulation)
- condition details: HEK-Blue cells overexpressing human TLR9, SEAP reporter, ODN2006 5 nM
pIC50: −log10 of the molar value.
assay endpoint: pIC50

• COC1CN(C2CCC(c3nc4c(C(C)C)c(-c5cn6ncnc6c(C)c5C)[nH]c4s3)CC2)C1 (single isomer, unassigned) [Example 189] = 5.00
• CCN(C)CC(=O)N[C@H]1CC[C@H](c2nc3c(C(C)C)c(-c4cc(OC)c5ncnn5c4)[nH]c3s2)CC1 = 4.87
• COc1cc(-c2[nH]c3sc(C4CCC(NC5COC5)CC4)nc3c2C(C)C)cn2ncnc12 (single isomer, unassigned) [Example 66] = 5.24

(I) CCN(C)C1CCC(c2nc3c(C(C)C)c(-c4cn(C)c5ncccc45)[nH]c3s2)CC1 (single isomer, unassigned) [Example 175]
(II) Cc1cc(-c2[nH]c3sc(C4CCN(CC5(C)COC5)CC4)nc3c2C(C)C)cc(C)n1
(III) Cc1cc2ncnn2cc1-c1[nH]c2sc(C3CCC(N(C)C(C)C)CC3)nc2c1C(C)C (single isomer, unassigned) [Example 158]
Request: Arrange the 3 entries by pIC50 so the values rise. Order the labels as requested and list them.
Response: III, I, II

====

- experimental system: human TLR9 (Homo sapiens)
- test name: TLR9 inhibition reporter assay (HEK-Blue cells, SEAP reporter, ODN2006 stimulation)
- condition details: HEK-Blue cells overexpressing human TLR9, SEAP reporter, ODN2006 5 nM
- Source text: TLR7/8/9 Inhibition Reporter Assays HEK-Blue™-cells (Invivogen) overexpressing human TLR7, TLR8 or TLR9 receptors were used for screening inhibitors of these receptors using an inducible SEAP (secreted embryonic alkaline phosphatase) reporter gene under the control of the IFN-β minimal promoter fused to five NF-κB and AP-1-binding sites. […]
assay endpoint: IC50 (µM)

Sample answers from the record:
• CC(C)c1c(-c2cn(C)c3ncccc23)[nH]c2sc(C3CCC(NCC4(C)COC4)CC3)nc12 (single isomer, unassigned) [Example 173] = 7.79
• CC(C)c1c(-c2cn(C)c3ncccc23)[nH]c2sc(C3CCC(NC4COC4)CC3)nc12 (single isomer, unassigned) [Example 178] = 6.71
• CC(C)c1c(-c2ccc(C#N)c3ncccc23)[nH]c2sc(C3CCN(C4COC4)CC3)nc12 [Example 37] = 27.9
• COc1cc(-c2[nH]c3sc(C4CCN(C5CCOCC5)CC4)nc3c2C(C)C)cn2ncnc12 [Example 12] = 2.15
• Cc1c(-c2[nH]c3sc(C4CCN(CC5CC5)CC4)nc3c2C(C)C)cn2ncnc2c1C [Example 53] = 5.07
• COc1cc(-c2[nH]c3sc(C4CCC(NC[C@@H](F)C(C)(C)O)CC4)nc3c2C(C)C)cn2ncnc12 (single isomer, unassigned) [Example 90] = 11.1
• COc1cc(-c2[nH]c3sc(C4CCC(NC5(C)COC5)CC4)nc3c2C(C)C)cn2ncnc12 (single isomer, unassigned) [Example 71] = 5.81
• COc1cc(-c2[nH]c3nc(C4CCNCC4)sc3c2C(C)C)cn2ncnc12 [Example 410] = 6.8

(P) Cc1c(-c2[nH]c3sc(C(=O)NCCN4CCCC4)nc3c2C(C)C)cn2ncnc2c1C [Example 370]
(Q) COC1CN(C2CCC(c3nc4c(C(C)C)c(-c5cn6ncnc6cc5C)[nH]c4s3)CC2)C1 (single isomer, unassigned) [Example 151]
Request: Which one would you say has the larger IC50 value: P , or Q ? The response must carry the label of the picked entry.
Response: Q
(Q: 23.4 µM, P: 6.44 µM)

(a) CCN1C[C@H](C)N(c2nc3c(C(C)C)c(-c4cn5ncnc5c(C)c4C)[nH]c3s2)C[C@H]1C [Example 331]
(b) CC(C)c1c(-c2cn(C)c3ncccc23)[nH]c2sc(C3CCN(C4CCOCC4)CC3)nc12 [Example 35]
Request: # argmax over IC50 for candidates a and b To answer, give the label that identifies your chosen option.
Response: a

(A) COc1cc(-c2[nH]c3sc(C4CCC(NC5(C)CCC5)CC4)nc3c2C(C)C)cn2ncnc12 (single isomer, unassigned) [Example 109]
(B) CNC(=O)CN1C[C@H](C)N(c2nc3c(C(C)C)c(-c4cn5ncnc5c(C)c4C)[nH]c3s2)C[C@H]1C [Example 336]
Request: Return label of the item with the larger IC50. Candidates: A , B . Your answer should be the label of the entry you select.
Response: B

(a) CCN1CCN(c2nc3c(C(C)C)c(-c4cn5ncnc5c(C)c4C)[nH]c3s2)[C@H](C)C1 [Example 320]
(b) Cc1cc(-c2[nH]c3sc(C4CCC(NC5COC5)CC4)nc3c2C(C)C)cn2ncnc12 (single isomer, unassigned) [Example 130]
Request: Hi, I'm comparing two records. Which one has the lower IC50, a or b ? Which one? Tell me its label.
Response: b
